Measured PXR Primary Efficacy of individual entries
Target: hPXR (Homo sapiens)
Sequence (O75469 1-434): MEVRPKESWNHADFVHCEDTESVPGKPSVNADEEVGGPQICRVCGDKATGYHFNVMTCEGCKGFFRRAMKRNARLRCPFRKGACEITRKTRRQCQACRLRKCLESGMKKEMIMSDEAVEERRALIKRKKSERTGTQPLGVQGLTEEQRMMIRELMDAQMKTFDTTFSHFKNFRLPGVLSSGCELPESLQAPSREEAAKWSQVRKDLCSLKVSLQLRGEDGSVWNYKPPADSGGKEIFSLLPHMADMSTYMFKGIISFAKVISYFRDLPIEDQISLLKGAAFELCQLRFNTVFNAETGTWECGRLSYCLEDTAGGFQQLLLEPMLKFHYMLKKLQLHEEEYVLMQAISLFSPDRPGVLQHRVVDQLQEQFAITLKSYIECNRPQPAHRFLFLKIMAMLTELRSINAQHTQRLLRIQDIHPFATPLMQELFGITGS
Counter-ions that a name gives are not always drawn.

[[record]]
molecule = "N=C(Nc1ccccc1)Nc1ccccc1"
result = "8.0 ± 13.7 [461 ± 143] %"

[[record]]
molecule = "CCCCOCN(C(=O)CCl)c1c(CC)cccc1CC"
result = "119 ± 49.2%"

[[record]]
molecule = "CCCN(CCC)c1c([N+](=O)[O-])cc(C(F)(F)F)c(N)c1[N+](=O)[O-]"
result = "4.7 ± 0.8 [168 ± 31.0] %"

[[record]]
molecule = "CCOC(=O)C1=C(C)NC(C)=C(C(=O)OCC)C1c1ccccc1/C=C/C(=O)OC(C)(C)C"
result = "5.6 ± 5.5 [155 ± 70.5] %"

[[record]]
molecule = "COC(=O)C1=C(C)NC(C)=C(C(=O)OC2CCCN(Cc3ccccc3)C2)C1c1cccc([N+](=O)[O-])c1 (racemic) [rac Benidipine hydrochloride]"
result = "5.6 ± 5.4 [141 ± 33.3] %"

[[record]]
molecule = "COC(=O)c1c(C(F)F)nc(C(F)(F)F)c(C2=NCCS2)c1CC(C)C"
result = "1.2 ± 1.0 [108 ± 37.9] %"

[[record]]
molecule = "O=C(CCCN1CCC2(CC1)C(=O)NCN2c1ccccc1)c1ccc(F)cc1"
result = "3.7 ± 0.4 [341 ± 31.7] %"


hPXR (Homo sapiens) data for CC[C@H]1CN2CCc3cc(OC)c(OC)cc3[C@@H]2C[C@@H]1C[C@H]1NCCc2cc(OC)c(OC)cc21 ; its PXR Primary Efficacy: 0.05 ± 0.04 [211 ± 74.0] %

###

pEC50 reference
target: hPXR (Homo sapiens, UniProt O75469); assay: cell-based; conditions: PXR Primary EC50
Quick note: pEC50 means taking -log10 of the concentration in moles per liter.

[[record]]
compound = "COC(=O)c1c(C(F)F)nc(C(F)(F)F)c(C2=NCCS2)c1CC(C)C [Thiazopyr]"
numeric_value = 5.92

[[record]]
compound = "CCCN(CCC)c1c([N+](=O)[O-])cc(C(F)(F)F)c(N)c1[N+](=O)[O-] [Prodiamine]"
numeric_value = 5.33


Continue with the next compound.
Just so you know, measured pEC50 for N=C(Nc1ccccc1)Nc1ccccc1 [1,3-Diphenylguanidine] came out at 5.10

###

target: UniProt O75469; assay: cell-based
Structures can show the parent of a compound that is named as a salt.
result.type: pEC50
To interpret pEC50, take it as minus log10 of a concentration measured in moles per litre.

As a guide, the following entries are already answered.
[[record]]
compound = "CC(C)C[C@H](NC(=O)[C@H](CCc1ccccc1)NC(=O)CN1CCOCC1)C(=O)N[C@@H](Cc1ccccc1)C(=O)N[C@@H](CC(C)C)C(=O)[C@@]1(C)CO1"
numeric_value = 7.00

[[record]]
compound = "Cc1cccc(N(C)C(=S)Oc2ccc3c(c2)CCC3)c1 [Tolindate]"
numeric_value = 5.06


According to the records, this compound O[C@@H](COc1cccc2ncccc12)CN1CCN([C@@H]2c3ccccc3[C@@H]3[C@H](c4ccccc42)C3(F)F)CC1 [Zosuquidar trihydrochloride] displays pEC50 of 5.80

Per the record, CCN1C(=O)c2ccccc2C1Nc1ccc(OCCN2CCCCC2)cc1 (stereo not drawn) has pEC50 of 5.49

The compound identified as CCOc1cc(N)c(Cl)cc1C(=O)NCC1CN(Cc2ccc(F)cc2)CCO1 (stereo not drawn) [Mosapride citrate] registered its pEC50 at 4.97

Summary for this compound, CCCCOCN(C(=O)CCl)c1c(CC)cccc1CC : pEC50 is 5.19

###

Target chain: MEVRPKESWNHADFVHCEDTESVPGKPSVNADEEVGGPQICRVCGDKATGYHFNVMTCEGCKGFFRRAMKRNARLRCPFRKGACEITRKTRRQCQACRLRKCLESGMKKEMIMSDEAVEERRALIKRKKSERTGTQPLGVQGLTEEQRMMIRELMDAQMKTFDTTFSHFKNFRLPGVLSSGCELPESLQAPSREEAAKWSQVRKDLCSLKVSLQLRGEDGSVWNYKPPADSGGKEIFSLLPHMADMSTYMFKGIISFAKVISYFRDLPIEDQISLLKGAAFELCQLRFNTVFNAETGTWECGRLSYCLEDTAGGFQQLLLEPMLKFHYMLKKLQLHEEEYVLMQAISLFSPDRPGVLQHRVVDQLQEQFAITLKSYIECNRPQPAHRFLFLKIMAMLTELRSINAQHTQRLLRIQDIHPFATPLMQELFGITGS
result.type: pEC50
In plain terms, pEC50 is the concentration in mol/L turned into minus its base-10 logarithm.

// pEC50 value for Cc1oc2c(NC(=O)c3c(Cl)cccc3Cl)cccc2c1C(C)(C)O [FR167356] : 5.15

###

Reported values: PXR Follow-up Efficacy for hPXR (Homo sapiens), one per item.

[[record]]
compound = "O=C(CCCN1CCC2(CC1)C(=O)NCN2c1ccccc1)c1ccc(F)cc1"
system_under_test = "hPXR (Homo sapiens)"
result = "6.2 ± 3.3 [345 ± 225] %"


response.value for Nc1nc(Cl)nc2c1ncn2[C@@H]1O[C@H](CO)[C@@H](O)[C@@H]1F (field: PXR Follow-up Efficacy) = 3.3 ± 0.4 [214 ± 13.9] %

Lookup result for CCOC(=O)C1=C(C)NC(C)=C(C(=O)OCC)C1c1ccccc1/C=C/C(=O)OC(C)(C)C ; measured PXR Follow-up Efficacy: 10.4 ± 4.4 [115 ± 15.0] %

Lab note: COC(=O)c1c(C(F)F)nc(C(F)(F)F)c(C2=NCCS2)c1CC(C)C gave PXR Follow-up Efficacy of 4.6 ± 0.3 [102 ± 8.66] %

###

Where a name gives a salt, the structure may show the parent alone.
What follows is a collection of PXR Follow-up Efficacy values obtained with hPXR (Homo sapiens, UniProt O75469).

Illustrative cases are given below, each with its answer.
[[record]]
compound = "CC[C@H]1CN2CCc3cc(OC)c(OC)cc3[C@@H]2C[C@@H]1C[C@H]1NCCc2cc(OC)c(OC)cc21 [Emetine]"
result = "0.1 ± 0.01 [119 ± 8.89] %"

[[record]]
compound = "CC(C)C[C@H](NC(=O)[C@H](Cc1ccccc1)NC(=O)c1cnccn1)B(O)O [Bortezomib]"
result = "0.02 ± 0.004 [83.8 ± 12.8] %"

[[record]]
compound = "COC(=O)C1=C(C)NC(C)=C(C(=O)OC2CCCN(Cc3ccccc3)C2)C1c1cccc([N+](=O)[O-])c1 (racemic) [rac Benidipine hydrochloride]"
result = "4.6 ± 2.3 [105 ± 14.7] %"

[[record]]
compound = "Cc1nc(Nc2ncc(C(=O)Nc3c(C)cccc3Cl)s2)cc(N2CCN(CCO)CC2)n1 [Dasatinib]"
result = "0.6 ± 0.07 [127 ± 12.0] %"

[[record]]
compound = "CCCN(CCC)c1c([N+](=O)[O-])cc(C(F)(F)F)c(N)c1[N+](=O)[O-] [Prodiamine]"
result = "8.5 ± 0.9 [108 ± 6.61] %"


// PXR Follow-up Efficacy value for N=C(Nc1ccccc1)Nc1ccccc1 [1,3-Diphenylguanidine] : 2.7 ± 0.3 [393 ± 128] %

For this compound ( COc1cccc(N(C)C(=S)Oc2ccc3c(c2)CCCC3)n1 [Liranaftate] ), measured PXR Follow-up Efficacy is 4.5 ± 0.7 [144 ± 16.0] %

What the record says about CCCCOCN(C(=O)CCl)c1c(CC)cccc1CC [Butachlor] : PXR Follow-up Efficacy is 107 ± 26.0%

Provenance of the data: paper PMC9440615
